molecular target: BACE2 (Homo sapiens, UniProt Q9Y5Z0); construct: recombinant BACE2 protein in a final concentration of 0.4 μg/ml; assay: BACE2 biochemical FRET based assay; details: recombinant BACE2, 450 minutes at room temperature, pH 5.0; read-out: Biochemical FRET based assay pIC50 (converted)
outcome.measure: log10 of IC50 (log10 of the value in nM)
// units: nM (pre-log); metric: IC50; scale: log10

COc1cc(C(=O)Nc2ccc(F)c([C@]34CO[C@H](C(C)(F)F)[C@H]3C[C@@](C)(C#N)C(N)=N4)c2)ncn1 [18a] | 3.08
C[C@@]1(C#N)C[C@@H]2[C@@H](C(F)F)OC[C@]2(c2cc(NC(=O)c3ccc(C#N)cn3)ccc2F)N=C1N [27a] | 1.56
CC(C)(F)[C@H]1OC[C@]2(c3cc(NC(=O)c4ccc(C#N)cn4)ccc3F)N=C(N)[C@@](C)(C#N)C[C@H]12 [21b] | 2.85
C[C@@]1(C#N)C[C@@H]2[C@@H](CF)OC[C@]2(c2cc(NC(=O)c3cnc(-n4cncn4)cn3)ccc2F)N=C1N [23a] | 2.55

Batch lookup, log10 of IC50 per entry.
1. CC1OCC2(c3cc(NC(=O)c4cnc(OCF)cn4)cc(F)c3F)N=C(N)C(C)(C#N)CC12 (single isomer, unassigned) [31a]
2. CC1(C#N)CC2C(C(F)(F)F)OCC2(c2cc(NC(=O)c3cnc(-n4cncn4)cn3)ccc2F)N=C1N (single isomer, unassigned) [34a]

3.38
2.42

Batch lookup, log10 of IC50 per entry.
1. CC1OCC2(c3cc(NC(=O)c4ccc(C#N)cn4)cc(F)c3F)N=C(N)C(C)(C#N)CC12 (single isomer, unassigned) [33d]
2. CC1OCC2(c3cc(NC(=O)c4ccc(C#N)cn4)cc(F)c3F)N=C(N)C(C)(C#N)CC12 (single isomer, unassigned) [33c]
3. CC1OCC2(c3cc(NC(=O)c4ccc(OC(F)F)cn4)ccc3F)N=C(N)C(C)(C#N)CC12 (centres unmarked) [compound 35]
4. C[C@]1(C#N)C[C@@H]2[C@@H](CF)OC[C@]2(c2cc(NC(=O)c3ccc(C#N)cn3)ccc2F)N=C1N [24b]
5. CC1(C#N)CC2C(C(F)F)OCC2(c2cc(NC(=O)c3cnc(OCF)cn3)ccc2F)N=C1N (single isomer, unassigned) [25a]

1: 3.95; 2: 2.67; 3: 1.93; 4: 2.20; 5: 2.15

----------
Test system: Abeta 1-42 produced and secreted into the medium of human neuroblastoma SKNBE2 cells
Experiment: Cellular αLisa assay in SKNBE2 cells
Type: cell-based
Settings: Homo sapiens, SKNBE2, 18 h, human neuroblastoma SKNBE2 cells expressing hAPP695, 18 hours incubation, read-out: Cellular αLisa assay in SKNBE2 cells Abeta 42 pIC50 (converted)
Protocol: Cellular αLisa Assay in SKNBE2 Cells In two αLisa assays the levels of Abeta 1-42 produced and secreted into the medium of human neuroblastoma SKNBE2 cells are quantified. […] Abeta 1-42 are measured by sandwich αLisa. αLisa is a sandwich assay using biotinylated antibody AbN/25 attached to streptavidin coated beads and antibody cAb42/26 conjugated acceptor beads for the detection of Abeta 1-42 respectively. […]
outcome.measure: IC50
Phrase the answer as number then unit, nothing more needed.

COc1cc(C(=O)Nc2ccc(F)c([C@]34CO[C@H](C(C)(F)F)[C@H]3C[C@@](C)(C#N)C(N)=N4)c2)ncn1 [18a] | 138 nM
CC1OCC2(c3cc(NC(=O)c4ccc(OC(F)F)cn4)ccc3F)N=C(N)C(C)(C#N)CC12 (centres unmarked) | 10 nM
CC(F)(F)[C@H]1OC[C@]2(c3cc(NC(=O)c4cnc(OCF)cn4)ccc3F)N=C(N)[C@](C)(C#N)C[C@H]12 | 6.92 nM
C[C@@]1(C#N)C[C@@H]2[C@@H](CF)OC[C@]2(c2cc(NC(=O)c3cnc(OCF)cn3)ccc2F)N=C1N [22a] | 13.2 nM
CC(F)(F)[C@H]1OC[C@]2(c3cc(NC(=O)c4cnc(-n5cncn5)cn4)ccc3F)N=C(N)[C@](C)(C#N)C[C@H]12 [16a] | 16.6 nM

For every listed record, write down its IC50.
1. Cc1cc(C#N)cnc1C(=O)Nc1ccc(F)c(C23COC(C(C)(F)F)C2CC(C)(C#N)C(N)=N3)c1 (centres unmarked)
2. CC1(C#N)CC2C(CF)OCC2(c2cc(NC(=O)c3ccc(C#N)cn3)ccc2F)N=C1N (centres unmarked) [24a]
3. C[C@@]1(C#N)C[C@@H]2[C@@H](CF)OC[C@]2(c2cc(NC(=O)c3cnc(-n4cncn4)cn3)ccc2F)N=C1N [23a]
4. C[C@@]1(C#N)C[C@@H]2[C@@H](C(F)F)OC[C@]2(c2cc(NC(=O)c3cnc(-n4cncn4)cn3)ccc2F)N=C1N [26a]
5. CC(C)(F)[C@H]1OC[C@]2(c3cc(NC(=O)c4ccc(C#N)cn4)ccc3F)N=C(N)[C@@](C)(C#N)C[C@H]12 [21b]
6. CC(F)(F)[C@H]1OC[C@]2(c3cc(NC(=O)c4ccc(C#N)cn4)ccc3F)N=C(N)[C@](C)(C#N)C[C@H]12 [17a]

1.78 nM
2.88 nM
25.7 nM
31.6 nM
19.5 nM
2.14 nM

----------
Biological target: BACE2 (Homo sapiens, UniProt Q9Y5Z0)
Construct: recombinant BACE2 protein in a final concentration of 0.4 μg/ml
Sequence (Q9Y5Z0 63-518): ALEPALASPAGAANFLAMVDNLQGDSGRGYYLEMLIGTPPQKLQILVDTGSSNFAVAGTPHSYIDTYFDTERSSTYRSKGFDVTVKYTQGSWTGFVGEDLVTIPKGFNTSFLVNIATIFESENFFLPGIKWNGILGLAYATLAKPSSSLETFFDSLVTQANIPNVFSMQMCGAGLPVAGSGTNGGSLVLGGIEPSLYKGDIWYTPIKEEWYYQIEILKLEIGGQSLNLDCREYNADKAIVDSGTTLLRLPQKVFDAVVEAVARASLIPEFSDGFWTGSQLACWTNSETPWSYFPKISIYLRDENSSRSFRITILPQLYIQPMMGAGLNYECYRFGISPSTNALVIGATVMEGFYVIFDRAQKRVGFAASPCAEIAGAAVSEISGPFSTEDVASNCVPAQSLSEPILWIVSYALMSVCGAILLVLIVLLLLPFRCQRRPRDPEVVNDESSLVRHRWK
Assay: BACE2 biochemical FRET based assay
Conditions: recombinant BACE2, 450 minutes at room temperature, pH 5.0
Provide the recorded Biochemical FRET based assay pIC50 for the entries that follow.

Some solved entries appear below for comparison.
C[C@@H]1OC[C@@]2(c3cc(NC(=O)c4ccc(F)cn4)ccc3F)N=C(N)[C@@](C)(C#N)C[C@@H]12 (single isomer, unassigned) [10c] | <5
C[C@]1(C#N)C[C@@H]2[C@@H](C(F)(F)F)OC[C@]2(c2cc(NC(=O)c3cnc(OCF)cn3)ccc2F)N=C1N | 6.24
C[C@]1(C#N)C[C@H]2[C@H](C(F)(F)F)OC[C@@]2(c2cc(NC(=O)c3ncc(Cl)cn3)ccc2F)N=C1N | 5.08

Shift focus to the following entry.
# query: Biochemical FRET based assay pIC50 of entry C[C@@]1(C#N)C[C@H]2[C@H](C(F)(F)F)OC[C@@]2(c2cc(NC(=O)c3ccc(C#N)cn3)ccc2F)N=C1N <5

----------
biological target: BACE1 (Homo sapiens, UniProt P56817); construct: recombinant BACE1 protein in a final concentration of 1 μg/ml; test: BACE1 biochemical FRET based assay; settings: Method 1: recombinant BACE1 1 μg/ml, 120 min at room temperature, pH 5.0
Sequence (P56817 46-501): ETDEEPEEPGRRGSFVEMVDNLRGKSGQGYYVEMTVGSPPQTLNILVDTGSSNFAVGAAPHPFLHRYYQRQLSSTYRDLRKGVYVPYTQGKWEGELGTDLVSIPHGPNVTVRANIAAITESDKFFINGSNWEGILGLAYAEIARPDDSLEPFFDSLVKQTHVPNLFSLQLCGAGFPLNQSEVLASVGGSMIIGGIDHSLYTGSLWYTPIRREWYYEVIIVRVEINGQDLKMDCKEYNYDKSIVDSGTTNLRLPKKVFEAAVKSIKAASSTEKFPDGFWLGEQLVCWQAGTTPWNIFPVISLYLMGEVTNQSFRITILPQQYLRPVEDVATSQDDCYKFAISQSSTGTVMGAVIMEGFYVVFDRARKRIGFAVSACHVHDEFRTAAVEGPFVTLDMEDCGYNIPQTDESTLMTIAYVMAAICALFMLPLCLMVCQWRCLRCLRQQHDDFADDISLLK
Threshold rule: Biochemical FRET based assay pIC50 greater than or equal to 6 is fulfilled; below that, not fulfilled.

COc1cnc(C(=O)Nc2ccc(F)c([C@]34CO[C@H](C)[C@H]3C[C@@](C)(S(C)(=O)=O)C(N)=N4)c2)cn1 (single isomer, unassigned) [13a] | fulfilled
C[C@H]1OC[C@]2(c3cc(NC(=O)c4ccc(C#N)cn4)ccc3F)N=C(N)[C@@](C)(C#N)C[C@H]12 [6b] | fulfilled
C[C@]1(C#N)C[C@H]2[C@H](C(F)(F)F)OC[C@@]2(c2cc(NC(=O)c3ncc(Cl)cn3)ccc2F)N=C1N [8d] | not fulfilled
COc1cnc(C(=O)Nc2ccc(F)c([C@@]34CO[C@@H](C)[C@@H]3C[C@](C)(C#N)C(N)=N4)c2)cn1 [1a] | not fulfilled

Next:
Is it the case that COc1cnc(C(=O)Nc2ccc(F)c([C@@]34CO[C@@H](C)[C@@H]3C[C@@](C)(S(C)(=O)=O)C(N)=N4)c2)cn1 (single isomer, unassigned) [13b] has Biochemical FRET based assay pIC50 reaching or exceeding 6? not fulfilled

----------
target: BACE1 (Homo sapiens); construct: recombinant BACE1 protein in a final concentration of 1 μg/ml; assay: BACE1 biochemical FRET based assay; settings: Method 1: recombinant BACE1 1 μg/ml, 120 min at room temperature, pH 5.0
true (1) if Biochemical FRET based assay pIC50 is below 8. false (0) if not; exact matches included in false (0).

C[C@H]1OC[C@]2(c3cc(NC(=O)c4ccc(C#N)cn4)ccc3F)N=C(N)[C@](C)(C#N)C[C@H]12 | false (0)
COc1cnc(C(=O)Nc2ccc(F)c([C@@]34CO[C@@H](C)[C@@H]3C[C@](C)(S(C)(=O)=O)C(N)=N4)c2)cn1 (single isomer, unassigned) [13c] | true (1)
COc1cnc(C(=O)Nc2ccc(F)c([C@]34CO[C@H](C)[C@H]3C[C@](C)(S(C)(=O)=O)C(N)=N4)c2)cn1 (single isomer, unassigned) [13d] | true (1)
C[C@]1(C#N)C[C@@H]2[C@@H](C(F)(F)F)OC[C@]2(c2cc(NC(=O)c3cnc(OCF)cn3)ccc2F)N=C1N | true (1)

Attention now turns to another entry.
I'd appreciate it if you could check whether C[C@H]1OC[C@]2(c3cc(NC(=O)c4cnc(OCF)cn4)ccc3F)N=C(N)[C@](C)(C#N)C[C@H]12 (single isomer, unassigned) has Biochemical FRET based assay pIC50 smaller than 8. false (0)
